The reported numbers originate from PubChem BioAssay (Tox21).

- assay procedure: qHTS assay to identify small molecule agonists of the sonic hedgehog signaling (Shh) pathway (AID 1259368);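 also: NIH/3T3-derived 3T3Gli1-Luc cells carrying a stable Gli1-driven firefly luciferase reporter; nearly all actives have a fitted effect of over 15% in size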
- condition details: NIH/3T3 Gli1-Luc reporter, luciferase, 24 h; series mostly up to 92.4 µM
Activity calls are given as the source filed them. Calls follow the shape of the full dose curve.

- compound: "C[n+]1ccn(Cc2ccccc2)c1"
  activity change: "inactive"
- compound: "CC1(C)CCC(C)(C)c2cc(C(=O)Nc3ccc(C(=O)O)cc3)ccc21"
  activity change: "inactive"
- compound: "Nc1ccc2c3c(cccc13)-c1ccccc1-2"
  activity change: "inactive"
- compound: "CNc1ccc(O)cc1"
  activity change: "inactive"
- compound: "CN(C/C=C/C#CC(C)(C)C)Cc1cccc2ccccc12"
  activity change: "inactive"
- compound: "OCCCCCCCCCCCCBr"
  activity change: "inactive"
- compound: "Oc1ccc2c(c1)-c1ccccc1C2"
  activity change: "inactive"
- compound: "C=CC(=O)OCC(CO)(COC(=O)C=C)COC(=O)C=C"
  activity change: "inactive"
- compound: "Cc1cc(=O)oc2cc(N(C)C)ccc12"
  activity change: "inactive"
- compound: "CCOC(=O)O[C@]1(C(=O)OCCl)CC[C@H]2[C@@H]3CCC4=CC(=O)C=C[C@]4(C)[C@H]3[C@@H](O)C[C@@]21C"
  activity change: "inactive"
- compound: "Cc1c(C)c2c(c(C)c1O)CCC(C)(COc1ccc(CC3SC(=O)NC3=O)cc1)O2 (stereo not given)"
  activity change: "inactive"
- compound: "CCCCc1oc2ccc(NS(C)(=O)=O)cc2c1C(=O)c1ccc(OCCCN(CCCC)CCCC)cc1"
  activity change: "inactive"
- compound: "CCCCCCCCCCC=O"
  activity change: "inactive"
- compound: "O=C(c1ccc(F)cc1)C1CCN(CCn2c(=O)[nH]c3ccccc3c2=O)CC1"
  activity change: "inactive"
- compound: "CCCCCCCCCCCCCCCS(=O)(=O)Oc1ccccc1"
  activity change: "inactive"
- compound: "NNc1nc(-c2ccccc2)cs1"
  activity change: "inactive"
- compound: "Fc1ccc(C(c2ccc(F)cc2)N2CCN(C/C=C/c3ccccc3)CC2)cc1"
  activity change: "inactive"
- compound: "O=Cc1cc(O)ccc1Br"
  activity change: "inactive"
- compound: "COc1cc(-c2ccc(N=C=O)c(OC)c2)ccc1N=C=O"
  activity change: "inactive"
- compound: "Cc1ccc(O)c(C(C)(C)C)c1"
  activity change: "inactive"
- compound: "CCc1cc(SCc2sc(-c3ccc(C(F)(F)F)cc3)nc2CN2CCN(c3ccc(OC)cc3)CC2)ccc1OCC(=O)O"
  activity change: "inactive"
- compound: "Cc1cccc(S(=O)(=O)O)c1C"
  activity change: "inactive"
- compound: "CCCCCCCC/C=C\\CCCCCCCCOCCO"
  activity change: "inactive"
- compound: "Cc1nc(-c2ccc3c(c2)CCN(CCC2CCC(NC(=O)/C=C/c4ccc(F)cc4)CC2)CC3)no1 (stereo not given)"
  activity change: "inactive"
- compound: "O=c1[nH]cnc2nc[nH]c12"
  activity change: "inactive"

----------
- study system: Nuclear receptor ROR-gamma (Homo sapiens) (UniProt P51449)
- assay procedure: qHTS assay to identify small molecule antagonists of the retinoid-related orphan receptor gamma (ROR-gamma) signaling pathway (AID 1159521; also: nearly all actives have a fitted effect of over 50% in size)
- condition details: Tet-on RORgamma CHO cells, RORE-luciferase, 16 h; series mostly up to 92.4 µM
Results filed as inconclusive are left out. Activity calls are given as the source filed them. Calls come from the whole dose curve; as a rule, active = well fitted inhibition curve with a large enough effect in the repeat runs; inconclusive = weak or mixed curves, or effect the other way; inactive = no such curve, though single readings can be large or run the other way.
Possible outcomes: active, inactive

- compound: "O=C(O)c1c(Cl)cccc1Cl"
  label class: "inactive"
- compound: "COc1cc(-c2ccc(N=C=O)c(OC)c2)ccc1N=C=O"
  label class: "inactive"
- compound: "OCCN(CCO)c1nc(N2CCCCC2)c2nc(N(CCO)CCO)nc(N3CCCCC3)c2n1"
  label class: "inactive"
- compound: "Oc1cc2ccccc2c2ccccc12"
  label class: "active"
- compound: "CCCCCCCCCCCCCCCCCC[N+](C)(C)C"
  label class: "active"
- compound: "CCCC1O[C@@H]2C[C@H]3[C@@H]4CCC5=CC(=O)C=C[C@]5(C)[C@H]4[C@@H](O)C[C@]3(C)[C@]2(C(=O)CO)O1 (some centres not stated)"
  label class: "active"
- compound: "Cc1cc(O)c(C(C)(C)C)cc1C(C)(C)C"
  label class: "active"
- compound: "CCCCCCCC/C=C\\CCCCCCCCOCCO"
  label class: "active"
- compound: "CO[Si](CCCNc1ccccc1)(OC)OC"
  label class: "inactive"
- compound: "CCCCCCCCCCC=O"
  label class: "inactive"
- compound: "C[C@@H]1C[C@H]2[C@@H]3CCC4=CC(=O)C=C[C@]4(C)[C@@]3(Cl)[C@@H](O)C[C@]2(C)[C@@]1(OC(=O)c1ccco1)C(=O)CCl"
  label class: "active"
- compound: "Cc1[nH]nc2c1N=C(c1ccccc1Cl)c1cc([N+](=O)[O-])ccc1N2"
  label class: "active"
- compound: "Cc1cccc2c1cc1ccc3cccc4ccc2c1c34"
  label class: "inactive"
- compound: "O=[N+]([O-])c1cc(Cl)c(Cl)c(Cl)c1Cl"
  label class: "inactive"
- compound: "CCCCCCCCCCCC[N+](C)(C)CCCCCCCCCCCC"
  label class: "active"
- compound: "O=C(NO)C1(NS(=O)(=O)c2ccc(Oc3ccc(F)cc3)cc2)CCOCC1"
  label class: "inactive"
- compound: "CCc1cc(Cc2cc(CC)cc(C(C)(C)C)c2O)c(O)c(C(C)(C)C)c1"
  label class: "active"
- compound: "Clc1ccc(C(Cn2ccnc2)OCc2ccc(Sc3ccccc3)cc2)c(Cl)c1 (configuration not stated)"
  label class: "inactive"
- compound: "COC(=O)C1=C(C)NC(C)=C(C(=O)OCCc2ccc(N3CCN(C(c4ccccc4)c4ccccc4)CC3)cc2)C1c1cccc([N+](=O)[O-])c1 (configuration not stated)"
  label class: "inactive"
- compound: "N=C1N=C(N)c2cc3ccccc3cc21"
  label class: "active"
- compound: "NNC(=O)c1cccc(C(=O)NN)c1"
  label class: "inactive"
- compound: "COc1cc(/C=C/C(=O)O[C@H]2CC[C@]34C[C@]35CC[C@]3(C)[C@@H]([C@H](C)CCC=C(C)C)CC[C@@]3(C)[C@@H]5CC[C@H]4C2(C)C)ccc1O"
  label class: "inactive"
